From: PubChem BioAssay AID330

Test system: P388 leukemia ip, CD2F1 mice, survival T/C
protocol-text: NCI In Vivo Anticancer Drug Screen. Data for tumor model P388 Leukemia (intraperitoneal) in CD2F1 (CDF1) mice
condition-details: endpoint: median survival time; dose: 50.0 mg/kg/injection; schedule: Q01DX009 (ip); vehicle: saline
Toxic doses and inconclusive results are not listed. Rule for the calls: active = survival T/C of 150% or more; inactive = T/C below 125% in these data.
In this exercise, the only acceptable responses are True = active, False = inactive

Check out these entries, answers already filled in.
C[S+](C)c1ccc(Cl)cc1 :: False
Nc1nc(N)n2c(N)nnc2n1 :: False

Lab log entry: CCOP(=O)(Cc1ccc(-c2nc3ccccc3o2)cc1)OCC — outcome as called in the assay?
False

Now consider O=C(c1ccccc1)C(CN1CCOCC1)CN1CCOCC1 and answer again.
False

Now consider CC(=O)CC1(O)C(=O)C(C(C)(C)C)=CC2(C(C)(C)C)OC12 (configuration not stated) and answer again.
False

Now consider CCCCCCCCCCCCCCCCCC(=O)CC(=O)C(F)(F)F and answer again.
False

----------
Catalogue of compounds with associated T/C
Tested on: P388 leukemia ip, CD2F1 mice, survival T/C
protocol-text: NCI In Vivo Anticancer Drug Screen. Data for tumor model P388 Leukemia (intraperitoneal) in CD2F1 (CDF1) mice
condition-details: endpoint: median survival time; dose: 200.0 mg/kg/injection; schedule: Q01DX001 (ip); vehicle: saline; higher = longer survival
Toxic doses and inconclusive results are not listed.

Nc1nc2c(c(=O)[nH]1)NC(CN(C=O)c1ccc(C(=O)NC(CCC(=O)O)C(=O)O)cc1)CC2 (stereo not drawn) :: 91 % of control
Cc1ccc(S(=O)(=O)c2cnc(N)nc2N)cc1 :: 95 % of control
CC(C)(CNCc1ccccc1)COS(=O)(=O)O :: 105 % of control
C=C1CC2(CC(C)CCC2C(C)C)OC1=O (stereo not drawn) :: 100 % of control
CN=C(N)N :: 100 % of control
CC(C)(S)CN :: 108 % of control
NC(=S)c1cccc(/C=N/Nc2ccc([N+](=O)[O-])cc2[N+](=O)[O-])c1 :: 105 % of control

// moving on: another record for T/C
I'd like to know its T/C. The compound in question is C=C1CC[C@H]2C(C)=CC[C@@H]3[C@H](OC(=O)[C@H]3CN(C)C)[C@@H]12
104 % of control

----------
Tested on: P388 leukemia ip, CD2F1 mice, survival T/C
protocol-text: NCI In Vivo Anticancer Drug Screen. Data for tumor model P388 Leukemia (intraperitoneal) in CD2F1 (CDF1) mice
condition-details: endpoint: median survival time; dose: 100.0 mg/kg/injection; schedule: Q01DX009 (ip); vehicle: saline; higher = longer survival
Toxic doses and inconclusive results are not listed.
Catalogue of compounds with associated T/C

Here's what some known entries look like.
CCOP(=O)(Nc1ccc(OC)cc1)OCC :: 108 % of control
CCOC(=O)C1CSCN1 (configuration not stated) :: 100 % of control
Cc1ncc(C[n+]2csc(CCO)c2C)c(N)n1 :: 105 % of control
COc1cc(C2OCCO2)cc(OC)c1O :: 105 % of control
c1ccc(C(Sc2ncnc3nc[nH]c23)c2ccccc2)cc1 :: 102 % of control

I'd like to know its T/C. The compound in question is COc1cc([N+](=O)[O-])ccc1N=Cc1cccs1
93 % of control

Now consider CN(C)c1ccc(/C=[N+](\C)[O-])cc1 and answer again.
98 % of control

Now consider Clc1ccc(Cl)c(N=NNc2cc(Cl)ccc2Cl)c1 and answer again.
92 % of control

Now consider CCO/C(C)=N\O and answer again.
97 % of control

----------
Test system: P388 leukemia ip, CD2F1 mice, survival T/C
protocol-text: NCI In Vivo Anticancer Drug Screen. Data for tumor model P388 Leukemia (intraperitoneal) in CD2F1 (CDF1) mice
condition-details: endpoint: median survival time; dose: 100.0 mg/kg/injection; schedule: Q01DX001 (ip); vehicle: saline; higher = longer survival
Toxic doses and inconclusive results are not listed.
Catalogue of compounds with associated T/C

Here's what some known entries look like.
CC(=O)N1CN2CN(C1)CN(C(C)=O)C2 :: 105 % of control
C[N+]1(C)CCCC(O)(C(=O)c2ccccc2)C1 (configuration not stated) :: 98 % of control
O=C(C1CO1)C(Cl)(Cl)Cl (configuration not stated) :: 111 % of control
NC(=O)c1nc2c(Nc3cccc(Cl)c3)nc(N)nc2nc1N :: 100 % of control
Cc1ccc(C(=O)/C(N)=C/c2ccccn2)cc1 :: 107 % of control

I'd like to know its T/C. The compound in question is CC(C)(S)CN
104 % of control

Now consider COP(=O)(OC)C(=[N+]=[N-])P(=O)(OC(C)C)OC(C)C and answer again.
99 % of control

----------
Catalogue of compounds with associated T/C
Tested on: P388 leukemia ip, CD2F1 mice, survival T/C
protocol-text: NCI In Vivo Anticancer Drug Screen. Data for tumor model P388 Leukemia (intraperitoneal) in CD2F1 (CDF1) mice
condition-details: endpoint: median survival time; dose: 200.0 mg/kg/injection; schedule: Q04DX003 (ip); vehicle: saline with Tween-80; higher = longer survival
Toxic doses and inconclusive results are not listed.

COC(=O)CCN(CCC(=O)OC)Cc1ccccc1 :: 100 % of control
COc1cc2c(cc1OC)-c1c3c(cc4c1[C@H](C2)N(C)CC4)OCO3 :: 110 % of control
CC(=O)OCC1OC(n2nc(/C=C/c3ccco3)c(=O)n(-c3ccccc3)c2=S)C(OC(C)=O)C(OC(C)=O)C1OC(C)=O (centres undefined) :: 100 % of control
CC(C)n1c(=S)[nH]c2ccccc2c1=O :: 95 % of control
O=[N+]([O-])c1cc2[nH]cnc2c([N+](=O)[O-])c1Nc1ccccc1 :: 93 % of control

I'd like to know its T/C. The compound in question is O=C1OC2(CCCCC2)OC(=O)C1=Cc1ccc([N+](=O)[O-])s1
105 % of control

Now consider CCCCCCC(O)CCCCCCCCCCC(=O)O (centres undefined) and answer again.
100 % of control

Now consider CC(C)C(Br)C(=O)NCC(=O)O (centres undefined) and answer again.
95 % of control

Now consider O=c1[nH]c(=O)c2n[nH]nc2[nH]1 and answer again.
90 % of control

Now consider Cc1n[nH]c(=O)c2ccccc12 and answer again.
99 % of control

Now consider CCOc1ccn(CC(=O)c2ccc(Cl)s2)c(=O)n1 and answer again.
90 % of control

Now consider CNc1nc(N)nc(Nc2ccc(I)cc2)c1N=O and answer again.
109 % of control

Now consider Cc1cc(NC(=O)SCCOC(=O)COc2ccc(Cl)cc2)ccc1Cl and answer again.
95 % of control

Now consider c1ccc(-c2csnn2)cc1 and answer again.
106 % of control

----------
Tested on: P388 leukemia ip, CD2F1 mice, survival T/C
protocol-text: NCI In Vivo Anticancer Drug Screen. Data for tumor model P388 Leukemia (intraperitoneal) in CD2F1 (CDF1) mice
condition-details: endpoint: median survival time; dose: 25.0 mg/kg/injection; schedule: Q01DX005 (ip); vehicle: Klucel (hydroxypropylcellulose) (HPC)
Method: The antitumor activity of compounds was measured in mice bearing transplantable tumors. Survival or tumor size were measured and the results are expressed as the measurement made in the treated group (T) divided by the measurement made in the vehicle treated control group (C). The tumor model used in this assay is P388 Leukemia (intraperitoneal) in CD2F1 (CDF1) mice
Toxic doses and inconclusive results are not listed. The calls were made as follows: active = survival T/C of 150% or more; inactive = T/C below 125% in these data.
In this exercise, the only acceptable responses are active, inactive

Check out these entries, answers already filled in.
C/C=C/CCC(=O)CC(O)CCO (centres undefined) :: inactive
COP(=O)(CS(=O)(=O)Oc1ccc(S(C)(=O)=O)cc1)OC :: inactive
O=C([O][Sn]([O]C(=O)c1ccccc1)([c]1ccccc1)[c]1ccccc1)c1ccccc1 :: active
O=[N+]([O-])c1ccc(CN2CCC(C(=S)Nc3ccccc3)=C2c2ccccc2)cc1 :: inactive
COc1cc2c(cc1C1COc3cc4occc4cc3C1=O)OCO2 (centres undefined) :: inactive

Lab log entry: CN(C)c1ccsc(=S)c1 — outcome as called in the assay?
inactive

Now consider COc1cc(/C=C/c2ccc(OC)c(O)c2)cc(OC)c1 and answer again.
inactive

----------
Catalogue of compounds with associated T/C
Tested on: P388 leukemia ip, CD2F1 mice, survival T/C
protocol-text: NCI In Vivo Anticancer Drug Screen. Data for tumor model P388 Leukemia (intraperitoneal) in CD2F1 (CDF1) mice
condition-details: endpoint: median survival time; dose: 12.5 mg/kg/injection; schedule: Q01DX005 (ip); vehicle: Klucel (hydroxypropylcellulose) (HPC); higher = longer survival
Toxic doses and inconclusive results are not listed.

COc1ccc(N(C)C(=O)/C=C/N2CCCCC2)cc1 :: 107 % of control

I'd like to know its T/C. The compound in question is O=C1/C(=C\c2ccccc2)C(NC2CCCCC2)c2ccccc21 (centres undefined)
107 % of control

Now consider COC(=O)C1=C2Nc3ccccc3C23CCN2C(O)C4(CC5CC67CCOC6CCN6CCC8(c9cccc(OC)c9N(C4)C58O)C67)C4OCCC4(C1)C23 (centres undefined) and answer again.
99 % of control

Now consider [Cl][Ge]([c]1ccccc1)[c]1ccccc1.[Cl][Ge]([c]1ccccc1)[c]1ccccc1 and answer again.
106 % of control

Now consider CCCCCC[Se][Se]CCCCCC and answer again.
106 % of control

Now consider COc1cc2c(cc1C1COc3cc4occc4cc3C1=O)OCO2 (centres undefined) and answer again.
97 % of control

Now consider NCC1CC2c3ccccc3C1c1ccccc12 (centres undefined) and answer again.
103 % of control

Now consider COP(=O)(CS(=O)(=O)Oc1ccc(S(C)(=O)=O)cc1)OC and answer again.
99 % of control

Now consider Cc1cc(C(=O)Nc2ccc(NC3=NCCN3)cc2)c(C)cc1C(=O)Nc1ccc(NC2=NCCN2)cc1 and answer again.
101 % of control
